Biological target: mushroom tyrosinase
Assay: Tyrosinase inhibition assay
Settings: n = 3; L-tyrosine substrate, pH 6.5, 37 °C, 10 min, 475 nm; molar value printed beside 104.2 µg/mL
Where a SMILES comes first, the peptide text is derived from it.
ENDPOINT: IC50 (µM)
Give the number; µM is assumed, so skip it.

Record N=C(N)NCCC[C@@H]1NC(=O)[C@H](CO)NC(=O)CNC(=O)[C@H](Cc2ccc(O)cc2)NC(=O)[C@H](CS)NC1=O [CR5, cyclic CYGSR] (cyclo(CYGSR)) . Reported IC50: 184
